target: human GLP-1 receptor (human, UniProt P43220 24-463); assay: cell-based or functional assay
Starred links: 1 amine or outer side, 2 acyl side, 3 side chain; linkers in the order of their positions; H or OH if unused. Non-standard residues stand in square brackets, D forms with d. Groups on a side chain read outwards from the residue. No end group written: not given here. *: point of attachment. C20 diacid = O=C(O)CCCCCCCCCCCCCCCCCCC(=O)*; C18 diacid = O=C(O)CCCCCCCCCCCCCCCCC(=O)*; γGlu = O=C(O)[C@H](CCC(=O)[*:2])N[*:1]; αMeF = C[C@](N)(Cc1ccccc1)C(=O)O; PEG4 = NCCOCCOCCOCCOCCC(=O)O; AEEA = NCCOCCOCC(=O)O; Aib = CC(C)(N)C(=O)O
Values of hGLP-1R EC50 (pM), cAMP strictly less than 40 pM map to 1.0, and values of at least 40 pM map to 0.0.

binder | group
H[Aib]HGS[αMeF]TSDVSK[αMeF]LDSRAAK([γGlu-γGlu-C18 diacid])D[αMeF]VQ[Aib]IANT-NH2 [Peptide 270] | 1.0
H[Aib]HGS[αMeF]TSDVSK[αMeF]LDSRAAK([AEEA-AEEA-γGlu-C20 diacid])D[αMeF]VQ[Aib]IANT-NH2 [Peptide 280] | 0.0
H[Aib]HGS[αMeF]TSDVSK[αMeF]LDSRAAK([PEG4-γGlu-γGlu-C18 diacid])D[αMeF]VQ[Aib]IANT-NH2 [Peptide 263] | 1.0

Req: Does this binder meet the criterion hGLP-1R EC50 (pM), cAMP < 40 pM? H[Aib]HGS[αMeF]TSDVSK[αMeF]LDSRAAK([AEEA-AEEA-γGlu-γGlu-C20 diacid])D[αMeF]VQSIANT-NH2 (not fully specified) [Peptide 244]
Resp: 0.0

Req: Does this binder meet the criterion hGLP-1R EC50 (pM), cAMP < 40 pM? H[Aib]HGS[αMeF]TSDVSK[αMeF]LDSR[Aib]AK([AEEA-AEEA-γGlu-C20 diacid])DFVESIANT-NH2 [Peptide 252]
Resp: 0.0

Req: Does this binder meet the criterion hGLP-1R EC50 (pM), cAMP < 40 pM? H[Aib]HGS[αMeF]TSDVSK[αMeF]LDSRAAK([AEEA-AEEA-γGlu-C18 diacid])D[αMeF]VQWIANT-NH2 (not fully specified; also: F22: αMePhe per table) [Peptide 288]
Resp: 0.0

Req: Does this binder meet the criterion hGLP-1R EC50 (pM), cAMP < 40 pM? H[Aib]HGS[αMeF]TSDVSK[αMeF]LDSR[Aib]AK([AEEA-AEEA-γGlu-γGlu-C20 diacid])DFVQ[Aib]IANT-NH2 (not fully specified) [Peptide 221]
Resp: 0.0

Req: Does this binder meet the criterion hGLP-1R EC50 (pM), cAMP < 40 pM? H[Aib]HGS[αMeF]TSDVSK[αMeF]LDSRAAK([AEEA-γGlu-AEEA-γGlu-C20 diacid])D[αMeF]VQ[Aib]IANT-NH2 [Peptide 266]
Resp: 0.0

Req: Does this binder meet the criterion hGLP-1R EC50 (pM), cAMP < 40 pM? H[Aib]HGS[αMeF]TSDVSK[αMeF]LDSRAAK([AEEA-C18 diacid])D[αMeF]VQ[Aib]IANT-NH2 [Peptide 273]
Resp: 1.0
